tested on: kinetic aqueous solubility, PBS pH 7.4, LC-UV/MS; experiment: Inhibitors of Bloom's syndrome helicase: Aqueous Profiling Assay
MEASUREMENT KIND: solubility

>  <CHEMICAL STRING>
O=C(Nc1ccc(F)c(C(F)(F)F)c1)Nc1nnc(-c2ccncc2)s1

>  <REPORTED MEASUREMENT>
2 µM

$$$$
